Answer each item with its documented IC50.
experiment: In vitro anti-plasmodial activity against Plasmodium falciparum dihydrofolate reductase C59R/S108N (K1CB1) mutant
Give the figure together with its unit, number first.

// query I have this molecule here, NC1=NC(c2cccc(Oc3cccc(C(F)(F)F)c3)c2)N(c2cccc(Cl)c2)C(N)=N1 (centres undefined) , and I need its recorded IC50.
// result 2800 nM

// query And the next one, NC1=NC(c2cccc(OCc3ccccc3)c2)N(c2cccc(Cl)c2)C(N)=N1 (centres undefined) ?
// result 4900 nM

// query And the next one, NC1=NC(c2ccccc2)N(c2cccc(Cl)c2)C(N)=N1 (centres undefined) ?
// result 310 nM

// query And the next one, CCCCCCC1(C)N=C(N)N=C(N)N1c1ccc(Cl)cc1 (centres undefined) ?
// result 2400 nM

// query And the next one, NC1=NC(c2cccc(Oc3cc(Cl)cc(Cl)c3)c2)N(c2cccc(Cl)c2)C(N)=N1 (centres undefined) ?
// result 3100 nM

// query And the next one, CCCCCCC1(C)N=C(N)N=C(N)N1c1cccc(Cl)c1 (centres undefined) ?
// result 480 nM

// query And the next one, CCCC1(C)N=C(N)N=C(N)N1c1cccc(Cl)c1 (centres undefined) ?
// result 180 nM

// query And the next one, NC1=NC(c2cccc(Oc3ccccc3)c2)N(c2cccc(Cl)c2)C(N)=N1 (centres undefined) ?
// result 2700 nM

// query And the next one, CCCCCCCC1N=C(N)N=C(N)N1c1cccc(Cl)c1 (centres undefined) ?
// result 260 nM
